The reader will find reported inhibition at 1 µM values listed item by item below.
Tested on: VIPR2 (Homo sapiens)
Sequence (P41587 24-438): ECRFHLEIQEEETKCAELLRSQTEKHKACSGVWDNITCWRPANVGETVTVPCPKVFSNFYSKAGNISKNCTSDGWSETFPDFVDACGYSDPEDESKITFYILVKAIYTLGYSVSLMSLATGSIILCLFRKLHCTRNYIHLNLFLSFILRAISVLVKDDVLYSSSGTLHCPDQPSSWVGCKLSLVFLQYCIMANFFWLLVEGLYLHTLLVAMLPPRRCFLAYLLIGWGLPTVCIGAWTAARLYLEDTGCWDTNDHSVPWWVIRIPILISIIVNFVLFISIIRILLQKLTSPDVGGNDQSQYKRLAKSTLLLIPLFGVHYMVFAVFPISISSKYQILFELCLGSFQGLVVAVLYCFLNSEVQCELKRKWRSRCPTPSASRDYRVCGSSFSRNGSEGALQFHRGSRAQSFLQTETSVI
Assay procedure: Inhibition of VIP-induced cAMP elevation (% Activity cAMP)
Assay type: cell-based
Design: expressed in transfected cells; host or cells: HEK293 cells transfected with VIPR2 in pCDNA3.1 (as described)
Measurement context: 1 μM, Batch 3
Endpoint: inhibition at 1 µM (%)

1. CC(=O)Nc1ccc(S(=O)(=O)NC[C@H](C[C@@H](Cc2ccccc2)C(=O)N[C@H]2c3ccccc3C[C@H]2O)OC(C)=O)cc1
32.3
2. CC(=O)Nc1ccc(S(=O)(=O)NC[C@H](C[C@@H](Cc2ccccc2)C(=O)N[C@H]2c3ccccc3C[C@H]2OC(C)=O)OC(C)=O)cc1
-8.7
3. CC(C)C(=O)Nc1ccc(S(=O)(=O)NC[C@@H](O)C[C@@H](Cc2ccccc2)C(=O)N[C@H]2c3ccccc3C[C@H]2O)cc1
6.9
4. CCC(=O)Nc1ccc(S(=O)(=O)NC[C@@H](O)C[C@@H](Cc2ccccc2)C(=O)N[C@H]2c3ccccc3C[C@H]2O)cc1
1.5
5. CCCCCNc1ccc(S(=O)(=O)NC[C@@H](O)C[C@@H](Cc2ccccc2)C(=O)N[C@H]2c3ccccc3C[C@H]2O)cc1
19.1
6. O=C(NCc1ccccc1)c1ccc(S(=O)(=O)NC[C@@H](O)C[C@@H](Cc2ccccc2)C(=O)N[C@H]2c3ccccc3C[C@H]2O)cc1
32.3
7. CC(C)Nc1ccc(S(=O)(=O)NC[C@@H](O)C[C@@H](Cc2ccccc2)C(=O)N[C@H]2c3ccccc3C[C@H]2O)cc1
18.2
8. CC(C)CNc1ccc(S(=O)(=O)NC[C@@H](O)C[C@@H](Cc2ccccc2)C(=O)N[C@H]2c3ccccc3C[C@H]2O)cc1
16.7
9. CCCCNC(=O)c1ccc(S(=O)(=O)NC[C@@H](O)C[C@@H](Cc2ccccc2)C(=O)N[C@H]2c3ccccc3C[C@H]2O)cc1
5.9
10. CN(C)c1ccc(S(=O)(=O)NC[C@@H](O)C[C@@H](Cc2ccccc2)C(=O)N[C@H]2c3ccccc3C[C@H]2O)cc1
-1.4
11. O=C(N[C@H]1c2ccccc2C[C@H]1O)[C@H](Cc1ccccc1)C[C@H](O)CNS(=O)(=O)c1ccc([N+](=O)[O-])cc1 [Compound A27, reference compound]
86.1
12. O=C(N[C@H]1c2ccccc2C[C@H]1O)[C@H](Cc1ccccc1)C[C@H](O)CNS(=O)(=O)c1ccc(C(=O)N2CCOCC2)cc1
0.1
13. O=C(O)c1ccc(S(=O)(=O)NC[C@@H](O)C[C@@H](Cc2ccccc2)C(=O)N[C@H]2c3ccccc3C[C@H]2O)cc1
6.4
14. CCN(CC)C(=O)c1ccc(S(=O)(=O)NC[C@@H](O)C[C@@H](Cc2ccccc2)C(=O)N[C@H]2c3ccccc3C[C@H]2O)cc1
5.9
15. O=C(NC1CCCC1)c1ccc(S(=O)(=O)NC[C@@H](O)C[C@@H](Cc2ccccc2)C(=O)N[C@H]2c3ccccc3C[C@H]2O)cc1
19.6
16. CNc1ccc(S(=O)(=O)NC[C@@H](O)C[C@@H](Cc2ccccc2)C(=O)N[C@H]2c3ccccc3C[C@H]2O)cc1
2
17. CC(=O)Nc1ccc(S(=O)(=O)NC[C@@H](O)C[C@@H](Cc2ccccc2)C(=O)N[C@H]2c3ccccc3C[C@H]2O)cc1
19.1
18. CNC(=O)c1ccc(S(=O)(=O)NC[C@@H](O)C[C@@H](Cc2ccccc2)C(=O)N[C@H]2c3ccccc3C[C@H]2O)cc1
22.1
19. CCCNc1ccc(S(=O)(=O)NC[C@@H](O)C[C@@H](Cc2ccccc2)C(=O)N[C@H]2c3ccccc3C[C@H]2O)cc1
11.3
20. O=C(Nc1ccc(S(=O)(=O)NC[C@@H](O)C[C@@H](Cc2ccccc2)C(=O)N[C@H]2c3ccccc3C[C@H]2O)cc1)C1CC1
23
21. O=C(N[C@H]1c2ccccc2C[C@H]1O)[C@H](Cc1ccccc1)C[C@H](O)CNS(=O)(=O)c1ccc(C(=O)N2CCCCC2)cc1
-7.3
22. Nc1ccc(S(=O)(=O)NC[C@@H](O)C[C@@H](Cc2ccccc2)C(=O)N[C@H]2c3ccccc3C[C@H]2O)cc1
18.6
